TARGET SYSTEM: T1, WT G-CSFR(Ig-CRH), purified, tag cleaved (human, UniProt Q99062 26-331)
T1 construct: also called G-CSFRWT; wild type G-CSFR ECD
T1 chain: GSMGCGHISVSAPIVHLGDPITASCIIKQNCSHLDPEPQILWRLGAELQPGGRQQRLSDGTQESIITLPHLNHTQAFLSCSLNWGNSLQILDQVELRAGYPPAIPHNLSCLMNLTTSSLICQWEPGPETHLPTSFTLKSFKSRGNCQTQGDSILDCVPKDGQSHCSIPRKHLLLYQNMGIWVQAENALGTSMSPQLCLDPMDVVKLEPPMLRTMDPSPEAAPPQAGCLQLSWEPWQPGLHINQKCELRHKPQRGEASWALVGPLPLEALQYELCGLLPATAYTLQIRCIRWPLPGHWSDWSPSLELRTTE
PROTOCOL DETAILS: SPR (Biacore T200), WT G-CSFR(Ig-CRH) amine-coupled, G-CSFE injected; KD relative to WT:WT control (larger = weaker)
MEASUREMENT TYPE: KD fold change (vs WT:WT) (fold)

- BINDER: "G-CSFE design 117, purified, tag cleaved (ligand, also called Design 117 G-CSFE) TPLGPASSLPQSFLLKCLEQVRKIQGDGAALQEKLCATYKLCHPERLVLLGHSLGIPWAPLSSCPSQALQLAGCLSQLHSGLFLYQGLLQALEGISPELGPTLDTLQLDVADFATTIWQQMRRLGMAPALQPTQGAMPAFASAFQRRAGGVLVASHLQSFLEVSYRVLRHLAQAAAENLYFQ"
  RECORDED NUMBER: 3.4
- BINDER: "G-CSFE design 34, purified, tag cleaved (ligand, also called Design 34 G-CSFE) TPLGPASSLPQSFLLKCLEQVRKIQGDGAALQEKLCATYKLCHPEELVLLGHSLGIPWAPLSSCPSQALQLAGCLSQLHSGLFLYQGLLQALEGISPELGPTLDTLQKDVARFATTIWQQMRRLGMAPALQPTQGAMPAFASAFQRRAGGVLVASHLQSFLEVSYRVLRHLAQAAAENLYFQ"
  RECORDED NUMBER: 33
- BINDER: "G-CSFE design 35, purified, tag cleaved (ligand, also called Design 35 G-CSFE) TPLGPASSLPQSFLLKCLEQVRKIQGDGAALQEKLCATYKLCHPEELVLLGHSLGIPWAPLSSCPSQALQLAGCLSQLHSGLFLYQGLLQALEGISPELGPTLDTLQLDVADFAKTIWQQMRRLGMAPALQPTQGAMPAFASAFQRRAGGVLVASHLQSFLEVSYRVLRHLAQAAAENLYFQ"
  RECORDED NUMBER: 5
- BINDER: "G-CSFE design 30, purified, tag cleaved (ligand, also called Design 30 G-CSFE) TPLGPASSLPQSFLLKCLEQVRKIQGDGAALQEKLCATYKLCHPEELVLLGHSLGIPWAPLSSCPSQALQLAGCLSQLHSGLFLYQGLLQALEGISPELGPTLDTLQKDVARFATTIWQQMEELGMAPALQPTQGAMPAFASAFQRRAGGVLVASHLQSFLEVSYRVLRHLAQAAAENLYFQ"
  RECORDED NUMBER: 20
- BINDER: "G-CSFE design 134, purified, tag cleaved (ligand, also called Design #134 G-CSFE) TPLGPASSLPQSFLLKCLEQVRKIQGDGAALQEKLCATYKLCHPERLVLLGHSLGIPWAPLSSCPSQALQLAGCLSQLHSGLFLYQGLLQALEGISPELGPTLDTLQKDVARFATTIWQQMRRLGMAPALQPTQGAMPAFASAFQRRAGGVLVASHLQSFLEVSYRVLRHLAQAAAENLYFQ"
  RECORDED NUMBER: 465
- BINDER: "G-CSFE design 9, purified, tag cleaved (ligand, also called Design 9 G-CSFE) TPLGPASSLPQSFLLKCLEQVRKIQGDGAALQEKLCATYKLCHPEELVLLGHSLGIPWAPLSSCPSQALQLAGCLSQLHSGLFLYQGLLQALEGISPELGPTLRTLQKDVARFATTIWRQMKELGMAPALQPTQGAMPAFASAFQRRAGGVLVASHLQSFLEVSYRVLRHLAQAAAENLYFQ"
  RECORDED NUMBER: 79
